protocol.summary: Inhibition of porcine pepsin assessed as inhibition constant using BSA-bromophenol blue as substrate by spectrophotometric analysis
Design: species or system Sus scrofa
readout.kind: Ki (nM)
Hi! Could you send only the number? It should be in nM, unit omitted.

Need Ki, item NC(=O)[C@H](CCc1ccccc1)NC(=O)[C@H](CCC(=O)O)NC(=O)C[C@H](O)[C@H](Cc1ccccc1)NC(=O)OCc1ccccc1
1600

###

target.or.test.system: Cathepsin D (Homo sapiens, UniProt P07339)
Sequence (P07339 65-162 limits assumed): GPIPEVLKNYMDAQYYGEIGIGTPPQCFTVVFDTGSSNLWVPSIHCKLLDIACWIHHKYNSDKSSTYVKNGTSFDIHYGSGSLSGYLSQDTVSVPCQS
Sequence (P07339 169-412 limits assumed): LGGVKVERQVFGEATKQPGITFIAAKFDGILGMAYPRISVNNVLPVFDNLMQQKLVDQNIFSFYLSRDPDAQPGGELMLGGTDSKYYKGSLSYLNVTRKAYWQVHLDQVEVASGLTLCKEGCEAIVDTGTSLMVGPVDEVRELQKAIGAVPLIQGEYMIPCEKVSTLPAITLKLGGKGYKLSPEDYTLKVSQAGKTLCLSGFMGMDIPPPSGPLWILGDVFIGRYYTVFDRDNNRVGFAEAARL
readout.kind: pKi
Would you please state pKi, meaning minus log10 of the concentration in mol/L, as a bare number?

Tell me the measured pKi of NC(=O)[C@H](CCc1ccccc1)NC(=O)[C@H](CCC(=O)O)NC(=O)C[C@H](O)[C@H](Cc1ccccc1)NC(=O)OCc1ccccc1 , please.
6.21

###

target.or.test.system: Human immunodeficiency virus type 1 protease (Human immunodeficiency virus 1, UniProt Q72874)
readout.kind: pKi
The scale used: pKi is minus the common logarithm of the concentration in molar units.

Find the recorded pKi belonging to NC(=O)[C@H](CCc1ccccc1)NC(=O)[C@H](CCC(=O)O)NC(=O)C[C@H](O)[C@H](Cc1ccccc1)NC(=O)OCc1ccccc1 and report it.
10.49

###

Can you tell me pKi for the items I'm about to list?
protocol.summary: Binding affinity to recombinant Cryptococcus neoformans var. grubii H99 major aspartyl peptidase 1 assessed as inhibition constant
pKi (log units): -log10 of the concentration in mol/L.

So what's the measured pKi for this one? CC(C)[C@H](NC(=O)[C@H](CCC(N)=O)NC(=O)C[C@H](O)[C@H](Cc1ccccc1)NC(=O)OCc1ccccc1)C(N)=O
6.92

May I ask what pKi has been recorded for C[C@@H](O)[C@H](NC(=O)[C@H](CCC(N)=O)NC(=O)C[C@H](O)[C@H](Cc1ccccc1)NC(=O)OCc1ccccc1)C(N)=O ?
5.89

Recorded pKi of CC[C@H](C)[C@H](NC(=O)[C@H](CCC(=O)O)NC(=O)C[C@H](O)[C@H](Cc1ccccc1)NC(=O)OCc1ccccc1)C(N)=O , please.
6.39

For CC(C)[C@H](NC(=O)[C@H](Cc1ccccc1)C[C@H](O)[C@H](Cc1ccccc1)NC(=O)OC(C)(C)C)C(=O)N[C@@H](Cc1ccccc1)C(=O)N1CCOCC1 , what is its reported pKi?
7.89

# get_value(readout='pKi', item= CCC[C@H](NC(=O)[C@H](CCC(N)=O)NC(=O)C[C@H](O)[C@H](Cc1ccccc1)NC(=O)OCc1ccccc1)C(N)=O )
6.33

Name the reported pKi value associated with the compound CC[C@H](NC(=O)[C@H](CCC(=O)O)NC(=O)C[C@H](O)[C@H](Cc1ccccc1)NC(=O)OCc1ccccc1)C(N)=O
6.12

Recorded pKi for CC(C)[C@H](NC(=O)[C@H](CCC(=O)O)NC(=O)C[C@H](O)[C@H](Cc1ccccc1)NC(=O)OCc1ccccc1)C(N)=O , please?
7.09

Quick one: pKi of NC(=O)CC[C@H](NC(=O)C[C@H](O)[C@H](Cc1ccccc1)NC(=O)OCc1ccccc1)C(=O)N[C@H](C(N)=O)c1ccccc1 ?
6.44

Reported pKi for NC(=O)[C@H](CC1CCCCC1)NC(=O)[C@H](CCC(=O)O)NC(=O)C[C@H](O)[C@H](Cc1ccccc1)NC(=O)OCc1ccccc1 : what is it?
6.80

For the compound NC(=O)CC[C@H](NC(=O)C[C@H](O)[C@H](Cc1ccccc1)NC(=O)OCc1ccccc1)C(=O)N[C@@H](CCc1ccccc1)C(N)=O , what pKi is on record?
7.19

Sample CC(C)C[C@H](NC(=O)[C@H](CCC(=O)O)NC(=O)C[C@H](O)[C@H](Cc1ccccc1)NC(=O)OCc1ccccc1)C(N)=O — what was its pKi?
6.80

What pKi value was documented for this compound, CCCC[C@H](NC(=O)[C@H](CCC(=O)O)NC(=O)C[C@H](O)[C@H](Cc1ccccc1)NC(=O)OCc1ccccc1)C(N)=O ?
6.74

Which pKi is listed for CC[C@H](NC(=O)[C@H](CCC(N)=O)NC(=O)C[C@H](O)[C@H](Cc1ccccc1)NC(=O)OCc1ccccc1)C(N)=O ?
5.92

Which pKi is reported for this compound? NC(=O)[C@H](Cc1ccccc1)NC(=O)[C@H](CCC(=O)O)NC(=O)C[C@H](O)[C@H](Cc1ccccc1)NC(=O)OCc1ccccc1
6.41

Fill in: pKi of CC[C@H](C)[C@H](NC(=O)[C@H](CCC(N)=O)NC(=O)C[C@H](O)[C@H](Cc1ccccc1)NC(=O)OCc1ccccc1)C(N)=O is ___
6.62

Please look up its pKi: NC(=O)CC[C@H](NC(=O)C[C@H](O)[C@H](Cc1ccccc1)NC(=O)OCc1ccccc1)C(=O)N[C@@H](Cc1ccccc1)C(N)=O
6.49

Reported pKi, compound CCCC[C@H](NC(=O)[C@H](CCC(N)=O)NC(=O)C[C@H](O)[C@H](Cc1ccccc1)NC(=O)OCc1ccccc1)C(N)=O : ____
6.77

Look at this compound and give its reported pKi. CSCC[C@H](NC(=O)[C@H](CCC(=O)O)NC(=O)C[C@H](O)[C@H](Cc1ccccc1)NC(=O)OCc1ccccc1)C(N)=O
6.55

Look up pKi for this compound: NC(=O)CC[C@H](NC(=O)C[C@H](O)[C@H](Cc1ccccc1)NC(=O)OCc1ccccc1)C(=O)N[C@@H](CC1CCCCC1)C(N)=O
6.40

Data request, read-out pKi, for CCC[C@H](NC(=O)[C@H](CCC(=O)O)NC(=O)C[C@H](O)[C@H](Cc1ccccc1)NC(=O)OCc1ccccc1)C(N)=O
6.39

For the compound NC(=O)[C@H](CCc1ccccc1)NC(=O)[C@H](CCC(=O)O)NC(=O)C[C@H](O)[C@H](Cc1ccccc1)NC(=O)OCc1ccccc1 , what pKi is on record?
7.92

I would be grateful if you could share the reported pKi for C[C@@H](O)[C@H](NC(=O)[C@H](CCC(=O)O)NC(=O)C[C@H](O)[C@H](Cc1ccccc1)NC(=O)OCc1ccccc1)C(N)=O .
6.60

Give the measured pKi of CC(C)CN(C[C@@H](O)[C@H](Cc1ccccc1)NC(=O)O[C@H]1CCOC1)S(=O)(=O)c1ccc(N)cc1 .
6.12

What value of pKi has been reported for the following compound? CSCC[C@H](NC(=O)[C@H](CCC(N)=O)NC(=O)C[C@H](O)[C@H](Cc1ccccc1)NC(=O)OCc1ccccc1)C(N)=O
6.54

Tell me the measured pKi of NC(=O)[C@H](Cc1c[nH]c2ccccc12)NC(=O)[C@H](CCC(=O)O)NC(=O)C[C@H](O)[C@H](Cc1ccccc1)NC(=O)OCc1ccccc1 , please.
6.47

Values from ChEMBL document CHEMBL5036316
